Assay: Metabolic stability in rat liver microsomes assessed as compound remaining after 30 mins
Assay type: ADME
Details: read-out: Stability
List of remaining at 0.5 h values.
measurement-type: remaining at 0.5 h (%)

smiles-string	measurement-type	observed
COC(=O)N[C@H](C(=O)N1CCC[C@H]1C(=O)Nc1ccc([C@H]2CC[C@H](c3ccc(NC(=O)[C@@H]4CCCN4C(=O)[C@@H](NC(=O)OC)C(C)(C)C)cc3)N2c2ccc(C(C)(C)C)cc2)cc1)C(C)(C)C	remaining at 0.5 h	83
COC(=O)N[C@H](C(=O)N1CCC[C@H]1C(=O)Nc1ccc([C@@H]2CC[C@@H](c3ccc(NC(=O)[C@@H]4CCCN4C(=O)[C@@H](NC(=O)OC)C(C)C)cc3)N2c2ccc(C(F)(F)F)cc2)cc1)C(C)C	remaining at 0.5 h	56
COC(=O)N[C@H](C(=O)N1CCC[C@H]1C(=O)Nc1ccc([C@@H]2CC[C@@H](c3ccc(NC(=O)[C@@H]4CCCN4C(=O)[C@@H](NC(=O)OC)C(C)C)cc3)N2c2ccc(F)cc2)cc1)C(C)C	remaining at 0.5 h	49
COC(=O)N[C@H](C(=O)N1CCC[C@H]1C(=O)Nc1ccc([C@H]2CC[C@H](c3ccc(NC(=O)[C@@H]4CCCN4C(=O)[C@@H](NC(=O)OC)C(C)C)cc3)N2c2ccc(C(C)(C)C)cc2)cc1)C(C)C	remaining at 0.5 h	65
COC(=O)N[C@H](C(=O)N1CCC[C@H]1C(=O)Nc1ccc([C@@H]2CC[C@@H](c3ccc(NC(=O)[C@@H]4CCCN4C(=O)[C@@H](NC(=O)OC)C(C)C)cc3)N2c2ccc(C(C)(C)C)cc2)cc1)C(C)C	remaining at 0.5 h	73
